Values compiled from patent US20260232732A1.

# target.system: T1, naked peptide 1a MTPTDFTSPIPNMADDYGSESTSS (human)
# T1 construct: also called region 1-24
# T1 peptide: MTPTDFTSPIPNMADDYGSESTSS
# experiment: ELISA naked 24-mer; repII
property.measured: OD450 (OD)
Give the number; OD is assumed, so skip it.

Consider the following illustrative entries.
binder	unit.of.measurement	observed.result
Comparative antibody 3 (Comp-3) scFv, SR_92R (Somovilla-Crespo et al. 2018), His-tagged (scFv) scFv: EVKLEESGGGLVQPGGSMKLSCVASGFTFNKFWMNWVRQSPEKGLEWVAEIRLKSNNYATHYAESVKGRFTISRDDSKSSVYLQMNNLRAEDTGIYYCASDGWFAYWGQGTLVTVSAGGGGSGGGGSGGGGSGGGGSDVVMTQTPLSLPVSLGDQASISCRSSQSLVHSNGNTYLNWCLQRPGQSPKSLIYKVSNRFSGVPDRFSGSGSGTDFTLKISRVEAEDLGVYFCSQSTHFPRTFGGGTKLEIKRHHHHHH	OD	1.35
Comparative antibody 1 (Comp-1) scFv, SEQ ID NO: 10 from WO2023/037125 A1, His-tagged (scFv) scFv: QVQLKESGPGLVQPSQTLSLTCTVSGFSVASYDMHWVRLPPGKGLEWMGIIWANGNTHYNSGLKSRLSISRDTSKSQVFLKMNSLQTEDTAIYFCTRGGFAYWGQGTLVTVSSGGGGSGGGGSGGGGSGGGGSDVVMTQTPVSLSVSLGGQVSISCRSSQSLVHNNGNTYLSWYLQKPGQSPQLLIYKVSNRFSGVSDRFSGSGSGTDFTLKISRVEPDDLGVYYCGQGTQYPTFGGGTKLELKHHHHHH	OD	0.1
Comparative antibody 2 (Comp-2) scFv, 243LO326 (VH SEQ ID NO: 51 and VL SEQ ID NO: 52 of WO 2022/195028 A2), His-tagged (scFv) scFv: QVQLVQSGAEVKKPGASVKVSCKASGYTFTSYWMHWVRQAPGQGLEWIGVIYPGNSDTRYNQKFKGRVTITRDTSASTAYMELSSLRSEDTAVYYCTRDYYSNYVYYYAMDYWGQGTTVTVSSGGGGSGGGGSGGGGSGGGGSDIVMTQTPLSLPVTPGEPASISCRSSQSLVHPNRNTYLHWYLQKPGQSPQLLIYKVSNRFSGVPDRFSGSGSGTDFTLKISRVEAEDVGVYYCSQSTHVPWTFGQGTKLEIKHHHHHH	OD	0.08

Here's the next entry for you.
Sure, the documented OD450 for CCR9_HUM2 scFv (humanized anti-CCR9 scFv, SEQ ID NO: 17 with C-terminal 6xHis tag) (scFv) scFv: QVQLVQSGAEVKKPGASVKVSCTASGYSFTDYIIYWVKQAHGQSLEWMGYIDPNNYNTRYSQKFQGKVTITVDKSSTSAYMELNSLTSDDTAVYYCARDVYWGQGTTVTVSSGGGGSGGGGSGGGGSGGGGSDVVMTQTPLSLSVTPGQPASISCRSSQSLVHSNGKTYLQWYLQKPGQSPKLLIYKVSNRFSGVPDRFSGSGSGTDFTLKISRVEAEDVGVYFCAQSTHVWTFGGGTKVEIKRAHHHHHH is 0.08
